target.system: Caspase-9 (Homo sapiens (Human), UniProt P55211)
Sequence (P55211 whole entry): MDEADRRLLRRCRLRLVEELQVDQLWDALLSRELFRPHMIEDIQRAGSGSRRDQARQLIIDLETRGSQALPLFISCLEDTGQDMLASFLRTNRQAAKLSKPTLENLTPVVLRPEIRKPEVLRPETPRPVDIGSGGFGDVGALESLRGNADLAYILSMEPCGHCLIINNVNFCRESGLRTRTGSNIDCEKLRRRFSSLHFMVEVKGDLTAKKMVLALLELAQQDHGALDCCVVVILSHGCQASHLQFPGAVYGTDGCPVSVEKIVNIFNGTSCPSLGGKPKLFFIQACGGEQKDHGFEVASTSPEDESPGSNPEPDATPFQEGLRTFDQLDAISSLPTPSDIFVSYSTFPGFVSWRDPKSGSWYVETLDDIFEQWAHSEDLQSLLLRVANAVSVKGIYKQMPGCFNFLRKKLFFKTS
experimental.protocol: Caspase-9 Inhibitor Drug Screening Kit, fluorometric (AFC liberation)
Assay type: biochemical
condition.info: 30-minute incubation at 37° C.; approximations of the average values; read-out: Caspase enzymatic activity, IC50 (uM) Caspase 9
Where a name gives a salt, the structure may show the parent alone.
endpoint.name: IC50

The following molecules have reported results that may help.
| molecule | IC50 |
| --- | --- |
| CC(C)[C@H](NC(=O)OCc1ccccc1)C(=O)N[C@H](/C=C/S(C)(=O)=O)CC(=O)O [Compound 61, z-Val-AspVSmethyl] | > 3.33 µM |
| CC(C)[C@H](NC(=O)[C@H](Cc1ccc2ccccc2n1)NC(=O)[C@H](CC(=O)O)NC(=O)OCc1ccccc1)C(=O)N[C@H](/C=C/S(C)(=O)=O)CC(=O)O [Compound 55] | > 3.33 µM |
| CC(C)(C)OC(=O)C[C@H](N)/C=C/S(C)(=O)=O.Cc1ccc(S(=O)(=O)O)cc1 [Compound 33] | > 3.33 µM |

Each molecule below has a recorded value; state its IC50.
1. CC(C)(C)OC(=O)C[C@H](N)/C=C/S(=O)(=O)c1ccccc1 [Compound 37, Asp-vinyl Phenyl Sulfone Salt Form]
2. CC(C)[C@H](NC(=O)[C@H](CCC(=O)O)NC(=O)[C@H](CC(=O)O)NC(=O)OCc1ccccc1)C(=O)N[C@H](/C=C/S(C)(=O)=O)CC(=O)O [Compound 59, Z-Asp-Glu-Val-Aspmethyl vinyl sulfone]
3. CS(=O)(=O)/C=C/[C@@H](N)CC(=O)O.Cc1ccc(S(=O)(=O)O)cc1 [Compound 93, AspVSmethyl]

Result block:
> 3.33 µM
0.5 µM
> 3.33 µM
